Hi there, I'd appreciate the recorded fold loss of potency (KI^app) relative to 6 for every entry that follows.
Measured On: MbtA (Mycobacterium tuberculosis, UniProt P71716)
Sequence (P71716 whole entry): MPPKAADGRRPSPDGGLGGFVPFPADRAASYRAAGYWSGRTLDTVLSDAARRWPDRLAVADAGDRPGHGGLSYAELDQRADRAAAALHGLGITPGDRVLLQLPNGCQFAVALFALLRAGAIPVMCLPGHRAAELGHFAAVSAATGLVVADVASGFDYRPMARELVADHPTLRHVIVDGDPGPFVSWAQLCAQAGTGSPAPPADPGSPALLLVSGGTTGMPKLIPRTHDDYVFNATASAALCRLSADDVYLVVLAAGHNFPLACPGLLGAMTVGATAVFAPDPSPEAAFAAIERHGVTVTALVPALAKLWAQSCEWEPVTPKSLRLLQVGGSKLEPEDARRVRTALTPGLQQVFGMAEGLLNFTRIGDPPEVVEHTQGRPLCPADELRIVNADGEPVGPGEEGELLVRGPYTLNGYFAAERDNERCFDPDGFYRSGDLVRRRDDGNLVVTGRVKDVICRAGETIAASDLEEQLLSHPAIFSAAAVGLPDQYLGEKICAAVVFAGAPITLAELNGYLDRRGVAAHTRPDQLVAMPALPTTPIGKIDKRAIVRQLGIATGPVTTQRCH
Format: biochemical
Conditions Used: relative to parent compound 6
Please give a number only; it is taken to be in fold.

Find the recorded fold loss of potency (KI^app) relative to 6 belonging to CC(C)CNc1ncnc2c1ncn2[C@@H]1O[C@H](COS(=O)(=O)[N-]C(=O)c2ccccc2O)[C@@H](O)[C@H]1O.[Na+] [Compound 15] and report it. 1140

Find the recorded fold loss of potency (KI^app) relative to 6 belonging to CCN(CC)CC.O=C(NS(=O)(=O)OC[C@H]1O[C@@H](n2cnc3c(=O)[nH]cnc32)[C@H](O)[C@@H]1O)c1ccccc1O [Compound 9] and report it. 121

Find the recorded fold loss of potency (KI^app) relative to 6 belonging to O=C([N-]S(=O)(=O)OC[C@H]1O[C@@H](n2cnc3c(NC4CCC4)ncnc32)[C@H](O)[C@@H]1O)c1ccccc1O.[Na+] [Compound 17] and report it. 124

Find the recorded fold loss of potency (KI^app) relative to 6 belonging to CCN(CC)CC.Nc1ncnc2c1ccn2[C@@H]1O[C@H](COS(=O)(=O)NC(=O)c2ccccc2O)[C@@H](O)[C@H]1O [Compound 7] and report it. 4

Find the recorded fold loss of potency (KI^app) relative to 6 belonging to CCN(CC)CC.CN(C)c1ncnc2c1ncn2[C@@H]1O[C@H](COS(=O)(=O)NC(=O)c2ccccc2O)[C@@H](O)[C@H]1O [Compound 10] and report it. 58
